Would you mind telling me the reported Excited state lifetime of each entry?
experiment: Excited state (emission) lifetime at different pH; format: physicochemical; conditions: pH 4
# unit: ms | format: bare number

*Q* Can you look up the measured Excited state lifetime of CCN(CC)c1cc(C#Cc2cc(CN3CCN(Cc4cc(C#Cc5ccc(OCCCC(=O)NCCCS(=O)(=O)[O-])c(N(CC)CC)c5)cc(P(C)(=O)[O-])n4)CCN(Cc4cc(CCCNC(=O)OC(C)(C)C)cc(P(C)(=O)[O-])n4)CC3)nc(P(C)(=O)[O-])c2)ccc1OCCCC(=O)NCCCS(=O)(=O)[O-].[Eu+3] [Complex 78a] for me?
*A* 1.04

*Q* Same for CCN(CC)c1cc(C#Cc2cc(CN3CCN(Cc4cccc(P(C)(=O)[O-])n4)CCN(Cc4cccc(P(C)(=O)[O-])n4)CC3)nc(P(C)(=O)[O-])c2)ccc1OC.[Eu+3] [Complex 14]
*A* 1.16

*Q* Same for CCN(CC)c1cc(C#Cc2cc(CN3CCN(Cc4cc(C#Cc5ccc(OCCCC(=O)O)c(N(CC)CC)c5)cc(P(C)(=O)[O-])n4)CCN(Cc4cc(CCCNC(=O)OC(C)(C)C)cc(P(C)(=O)[O-])n4)CC3)nc(P(C)(=O)[O-])c2)ccc1OCCCC(=O)O.[Eu+3] [Complex 77a]
*A* 0.97

----------
assay: Excited state (emission) lifetime at different pH; type: physicochemical; settings: pH 4
Observable: Excited state lifetime (ms)
# unit: ms | format: bare number

*Q* Can you look up the measured Excited state lifetime of CCN(CC)c1cc(C#Cc2cc(CN(CC(=O)O)CC(=O)O)nc(CN(CC(=O)O)CC(=O)O)c2)ccc1OCCCN for me?
*A* 0.38

*Q* Same for CCN(CCCS(=O)(=O)O)c1cc(C#Cc2cc(CN3CCN(Cc4cc(C#Cc5ccc(OC)c(N(CC)CCCS(=O)(=O)O)c5)cc(P(C)(=O)O)n4)CCN(Cc4cc(CCCNC(=O)OC(C)(C)C)cc(P(C)(=O)O)n4)CC3)nc(P(C)(=O)O)c2)ccc1OC [Complex 88a]
*A* 1.07

*Q* Same for CCN(CC)c1cc(C#Cc2cc(CN3CCN(Cc4cc(C#Cc5ccc(OC)c(N(CC)CC)c5)cc(P(C)(=O)[O-])n4)CCN(Cc4cc(C#Cc5ccc(OC)c(N(CC)CC)c5)cc(P(C)(=O)[O-])n4)CC3)nc(P(C)(=O)[O-])c2)ccc1OC.[Eu+3]
*A* 0.84

*Q* Same for CCN(C)c1cc(C#Cc2cc(CN3CCN(Cc4cc(C#Cc5ccc(OCCCC(=O)NCCCS(=O)(=O)[O-])c(N(C)CC)c5)cc(P(C)(=O)[O-])n4)CCN(Cc4cc(CCCNC(=O)OC(C)(C)C)cc(P(C)(=O)[O-])n4)CC3)nc(P(C)(=O)[O-])c2)ccc1OCCCC(=O)NCCCS(=O)(=O)[O-].[Eu+3] [Complex 78b]
*A* 1.05

----------
experiment: Excited state (emission) lifetime at different pH; type: physicochemical; settings: pH 6
Would you mind telling me the reported Excited state lifetime of each entry?
# unit: ms | format: bare number

*Q* Can you look up the measured Excited state lifetime of CCN(CC)c1cc(C#Cc2cc(CN3CCN(Cc4cccc(P(C)(=O)[O-])n4)CCN(Cc4cccc(P(C)(=O)[O-])n4)CC3)nc(P(C)(=O)[O-])c2)ccc1OC.[Eu+3] for me?
*A* 1.06

*Q* Same for CCN(C)c1cc(C#Cc2cc(CN3CCN(Cc4cc(C#Cc5ccc(OCCCC(=O)NCCCS(=O)(=O)[O-])c(N(C)CC)c5)cc(P(C)(=O)[O-])n4)CCN(Cc4cc(CCCNC(=O)OC(C)(C)C)cc(P(C)(=O)[O-])n4)CC3)nc(P(C)(=O)[O-])c2)ccc1OCCCC(=O)NCCCS(=O)(=O)[O-].[Eu+3] [Complex 78b]
*A* 0.42

*Q* Same for CCN(CC)c1cc(C#Cc2cc(CN(CC(=O)O)CC(=O)O)nc(CN(CC(=O)O)CC(=O)O)c2)ccc1OCCCN
*A* 0.35

----------
Would you mind telling me the reported Excited state lifetime of each entry?
test: Excited state (emission) lifetime at different pH; assay type: physicochemical; settings: pH 7
# unit: ms | format: bare number

*Q* Can you look up the measured Excited state lifetime of CCN(CC)c1cc(C#Cc2cc(CN(CC(=O)O)CC(=O)O)nc(CN(CC(=O)O)CC(=O)O)c2)ccc1OCCCN for me?
*A* 0.32

*Q* Same for CCN(CCCS(=O)(=O)O)c1cc(C#Cc2cc(CN3CCN(Cc4cc(C#Cc5ccc(OC)c(N(CC)CCCS(=O)(=O)O)c5)cc(P(C)(=O)O)n4)CCN(Cc4cc(CCCNC(=O)OC(C)(C)C)cc(P(C)(=O)O)n4)CC3)nc(P(C)(=O)O)c2)ccc1OC [Complex 88a]
*A* 0.29

*Q* Same for CCN(C)c1cc(C#Cc2cc(CN3CCN(Cc4cc(C#Cc5ccc(OCCCC(=O)NCCCS(=O)(=O)[O-])c(N(C)CC)c5)cc(P(C)(=O)[O-])n4)CCN(Cc4cc(CCCNC(=O)OC(C)(C)C)cc(P(C)(=O)[O-])n4)CC3)nc(P(C)(=O)[O-])c2)ccc1OCCCC(=O)NCCCS(=O)(=O)[O-].[Eu+3] [Complex 78b]
*A* 0.29

*Q* Same for CCN(CC)c1cc(C#Cc2cc(CN3CCN(Cc4cccc(P(C)(=O)[O-])n4)CCN(Cc4cc(C#Cc5ccc(OC)c(N(CC)CC)c5)cc(P(C)(=O)[O-])n4)CC3)nc(P(C)(=O)[O-])c2)ccc1OC.[Eu+3]
*A* 0.47

----------
assay: Excited state (emission) lifetime at different pH; format: physicochemical; details: pH 8
Decision: Excited state lifetime beneath 0.3 ms gives Met; Excited state lifetime meeting or exceeding 0.3 ms gives Not met.

*Q* Input CCN(CC)c1cc(C#Cc2cc(CN3CCN(Cc4cc(C#Cc5ccc(OCCCC(=O)O)c(N(CC)CC)c5)cc(P(C)(=O)[O-])n4)CCN(Cc4cc(CCCNC(=O)OC(C)(C)C)cc(P(C)(=O)[O-])n4)CC3)nc(P(C)(=O)[O-])c2)ccc1OCCCC(=O)O.[Eu+3] [Complex 77a] ; condition: Excited state lifetime strictly below 0.3 ms. Does it hold?
*A* Met

*Q* Same for CCN(CC)c1cc(C#Cc2cc(CN3CCN(Cc4cc(C#Cc5ccc(OC)c(N(CC)CC)c5)cc(P(C)(=O)[O-])n4)CCN(Cc4cc(C#Cc5ccc(OC)c(N(CC)CC)c5)cc(P(C)(=O)[O-])n4)CC3)nc(P(C)(=O)[O-])c2)ccc1OC.[Eu+3] [Complex 21]
*A* Met

*Q* Same for CCN(CC)c1cc(C#Cc2cc(CN3CCN(Cc4cccc(P(C)(=O)[O-])n4)CCN(Cc4cc(C#Cc5ccc(OC)c(N(CC)CC)c5)cc(P(C)(=O)[O-])n4)CC3)nc(P(C)(=O)[O-])c2)ccc1OC.[Eu+3] [Complex 18]
*A* Not met

*Q* Same for CCN(CCCS(=O)(=O)O)c1cc(C#Cc2cc(CN3CCN(Cc4cc(C#Cc5ccc(OC)c(N(CC)CCCS(=O)(=O)O)c5)cc(P(C)(=O)O)n4)CCN(Cc4cc(CCCNC(=O)OC(C)(C)C)cc(P(C)(=O)O)n4)CC3)nc(P(C)(=O)O)c2)ccc1OC [Complex 88a]
*A* Not met

*Q* Same for CCN(CC)c1cc(C#Cc2cc(CN3CCN(Cc4cc(C#Cc5ccc(OCCCC(=O)NCCCS(=O)(=O)[O-])c(N(CC)CC)c5)cc(P(C)(=O)[O-])n4)CCN(Cc4cc(CCCNC(=O)OC(C)(C)C)cc(P(C)(=O)[O-])n4)CC3)nc(P(C)(=O)[O-])c2)ccc1OCCCC(=O)NCCCS(=O)(=O)[O-].[Eu+3] [Complex 78a]
*A* Met

*Q* Same for CCN(CC)c1cc(C#Cc2cc(CN3CCN(Cc4cccc(P(C)(=O)[O-])n4)CCN(Cc4cccc(P(C)(=O)[O-])n4)CC3)nc(P(C)(=O)[O-])c2)ccc1OC.[Eu+3] [Complex 14]
*A* Not met

----------
Would you mind telling me the reported Q.Y. pH 4 of each entry?
assay: Quantum yield of europium complexes at different pH; format: physicochemical; settings: pH 4; text gives the same values in %
# unit: % | format: bare number

*Q* Can you look up the measured Q.Y. pH 4 of CCN(CC)c1cc(C#Cc2cc(CN3CCN(Cc4cccc(P(C)(=O)[O-])n4)CCN(Cc4cc(C#Cc5ccc(OC)c(N(CC)CC)c5)cc(P(C)(=O)[O-])n4)CC3)nc(P(C)(=O)[O-])c2)ccc1OC.[Eu+3] for me?
*A* 17.6

*Q* Same for CCN(CC)c1cc(C#Cc2cc(CN3CCN(Cc4cc(C#Cc5ccc(OC)c(N(CC)CC)c5)cc(P(C)(=O)[O-])n4)CCN(Cc4cc(C#Cc5ccc(OC)c(N(CC)CC)c5)cc(P(C)(=O)[O-])n4)CC3)nc(P(C)(=O)[O-])c2)ccc1OC.[Eu+3]
*A* 17

*Q* Same for CCN(CC)c1cc(C#Cc2cc(CN3CCN(Cc4cccc(P(C)(=O)[O-])n4)CCN(Cc4cccc(P(C)(=O)[O-])n4)CC3)nc(P(C)(=O)[O-])c2)ccc1OC.[Eu+3]
*A* 16.8

*Q* Same for CCN(CCCS(=O)(=O)O)c1cc(C#Cc2cc(CN3CCN(Cc4cc(C#Cc5ccc(OC)c(N(CC)CCCS(=O)(=O)O)c5)cc(P(C)(=O)O)n4)CCN(Cc4cc(CCCNC(=O)OC(C)(C)C)cc(P(C)(=O)O)n4)CC3)nc(P(C)(=O)O)c2)ccc1OC [Complex 88a]
*A* 13.4

*Q* Same for CCN(CC)c1cc(C#Cc2cc(CN3CCN(Cc4cc(C#Cc5ccc(OCCCC(=O)NCCCS(=O)(=O)[O-])c(N(CC)CC)c5)cc(P(C)(=O)[O-])n4)CCN(Cc4cc(CCCNC(=O)OC(C)(C)C)cc(P(C)(=O)[O-])n4)CC3)nc(P(C)(=O)[O-])c2)ccc1OCCCC(=O)NCCCS(=O)(=O)[O-].[Eu+3] [Complex 78a]
*A* 16

Where do these numbers come from? They come from patent US20230382928A1.
